# selectivity ratio per record follows
test: Protective index, ratio of ED50 for neurotoxicity in po dosed mouse by rotarod test to ED50 for anticonvulsant activity in po dosed mouse assessed as protection against maximal electroshock-induced seizures; assay type: toxicity, organism-based; conditions: in vivo, read-out: Ratio ED50

Please review the entries below; each comes with its answer.
* O=C(CN1CCOCC1)Nc1ccc(C2NC(=O)Cc3ccccc32)cc1 (stereo unspecified) | > 29
* O=C1NC(=O)C(c2ccccc2)(c2ccccc2)N1 [PHENYTOIN] | 15
* CNCC(=O)Nc1ccc(C2NC(=O)Cc3ccccc32)cc1 (stereo unspecified) | 12
* CCCNCC(=O)Nc1ccc(C2NC(=O)C(C(C)C)c3ccccc32)cc1 (stereo unspecified) | 2.5
* CCCNCC(=O)Nc1ccc(C2NC(=O)Cc3ccccc32)cc1 (stereo unspecified) | 24

Entry under test: CCCNCC(=O)Nc1ccc(C2NC(=O)C(C)c3ccccc32)cc1 (stereo unspecified) . Its selectivity ratio was 15

Entry under test: CCCCNCC(=O)Nc1ccc(C2NC(=O)C(C)(C)c3ccccc32)cc1 (stereo unspecified) . Its selectivity ratio was 14

Entry under test: CC1(C)C(=O)NC(c2ccc(NC(=O)CN3CCCCC3)cc2)c2ccccc21 (stereo unspecified) . Its selectivity ratio was > 36
